# assayed_system: FITC-labeled CFTRpS753pS768 peptide (no 14-3-3) (Homo sapiens, UniProt P13569)
# Construct: made in house; host or cells: synthetic peptide
# Sequence (P13569 747-774 limits assumed): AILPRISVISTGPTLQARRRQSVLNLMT
# assay_protocol: Dose-response FP control assay in the absence of 14-3-3
# Assay type: binding
# test_conditions: No 14-3-3; compound 0.000125 M
observation_type: FP signal

INSERT INTO measurements (compound, observation_type, measured) VALUES
  ('CN1CC(=O)NC(CCCNC(=N)N)C(=O)NC(CCC(N)=O)C(=O)NC(CCCNC(=N)N)C(=O)NCc2ccccc2-c2cccc(c2)C1 (centres unmarked)', 'FP signal', 83),
  ('N=C(N)NCCCC1NC(=O)C(CCCCN)NCc2ccccc2Sc2ccccc2CNC(=O)C(Cc2ccc(O)cc2)NC1=O (centres unmarked)', 'FP signal', 73),
  ('C=CC(C)(C)OC[C@H]1O[C@H](O[C@@H]2C3=C([C@H](C)COC(C)=O)C[C@H](O)[C@]3(C)/C=C3/[C@@H](COC)CC[C@H]3[C@@H](C)[C@H]2O)[C@H](O)[C@@H](OC(C)=O)[C@@H]1O [FC-A, fusicoccin A, reference compound]', 'FP signal', 91);

GET /value?item= N=C(N)NCCCC1NCc2ccccc2Sc2ccccc2CNC(=O)C(Cc2ccc(O)cc2)NC(=O)C(CCCN)NC1=O (centres unmarked) &field=FP signal returns 244

GET /value?item= N=C(N)NCCCC1NC(=O)C(CCC(N)=O)NC(=O)C(CCCNC(=N)N)NC(=O)C2CCCN2Cc2cccc(c2)-c2ccccc2CNC1=O (centres unmarked) [CY007458] &field=FP signal returns 124

* * *

# assayed_system: FITC-labeled CFTRpS753pS768 peptide (no 14-3-3) (Homo sapiens, UniProt P13569)
# Construct: made in house; host or cells: synthetic peptide
# assay_protocol: Dose-response FP control assay in the absence of 14-3-3
# Assay type: binding
# test_conditions: No 14-3-3; compound 3.125e-5 M
Readings of FP signal for the listed compounds
Write no unit; give the number alone.

INSERT INTO results (compound, assayed_system, observation_type, measured) VALUES
  ('N=C(N)NCCCC1NCc2ccccc2Sc2ccccc2CNC(=O)C(Cc2ccc(O)cc2)NC(=O)C(CCCN)NC1=O (stereo not drawn)', 'FITC-labeled CFTRpS753pS768 peptide (no 14-3-3) (Homo sapiens, UniProt P13569)', 'FP signal', 122),
  ('NCCCCC1NCc2ccccc2Sc2ccccc2CNC(=O)C(Cc2cccc(Cl)c2)NC(=O)C(Cc2ccc(O)cc2)NC1=O (stereo not drawn)', 'FITC-labeled CFTRpS753pS768 peptide (no 14-3-3) (Homo sapiens, UniProt P13569)', 'FP signal', 30),
  ('N=C(N)NCCCC1NC(=O)C(CCCCN)NCc2ccccc2Sc2ccccc2CNC(=O)C(Cc2ccc(O)cc2)NC1=O (stereo not drawn)', 'FITC-labeled CFTRpS753pS768 peptide (no 14-3-3) (Homo sapiens, UniProt P13569)', 'FP signal', 16),
  ('CC1NC(=O)C(CCCNC(=N)N)NC(=O)C2CCCN2Cc2cccc(c2)-c2ccccc2CNC(=O)C(CCCNC(=N)N)NC1=O (stereo not drawn)', 'FITC-labeled CFTRpS753pS768 peptide (no 14-3-3) (Homo sapiens, UniProt P13569)', 'FP signal', 24),
  ('N=C(N)NCCCC1NC(=O)C(CCC(N)=O)NC(=O)C(CCCNC(=N)N)NC(=O)C2CCCN2Cc2cccc(c2)-c2ccccc2CNC1=O (stereo not drawn) [CY007455]', 'FITC-labeled CFTRpS753pS768 peptide (no 14-3-3) (Homo sapiens, UniProt P13569)', 'FP signal', 26);

The record that follows has no FP signal shown yet.
GET /value?item= C=CC(C)(C)OC[C@H]1O[C@H](O[C@@H]2C3=C([C@H](C)COC(C)=O)C[C@H](O)[C@]3(C)/C=C3/[C@@H](COC)CC[C@H]3[C@@H](C)[C@H]2O)[C@H](O)[C@@H](OC(C)=O)[C@@H]1O [FC-A, fusicoccin A, reference compound] &field=FP signal returns 53
